# procedure.summary: Pharmacokinetics after oral and IV administration
# Format: in vivo
# stated.conditions: plasma; Dog; IV Dose 1 mg/kg, PO Dose 3 mg/kg
reported.endpoint: Tmax (h)
I only need the number, in h, no unit after it.

Return value of Tmax for input `Cc1cc(C)c(-c2ccc(NC(=O)[C@H](Cc3ccc(C(=O)NCCS(=O)(=O)O)cc3)c3ccc(-c4ccc(C(C)(C)C)cc4)cc3)cc2)c(C)c1` , no commentary.
4

---

# procedure.summary: Pharmacokinetics after oral and IV administration
# Type: in vivo
# stated.conditions: plasma; Rat; IV Dose 1 mg/kg, PO Dose 3 mg/kg
reported.endpoint: AUC(0-t) (ng·h/mL)
All answers are understood in ng·h/mL, so give the number only.

Give the reported value of AUC(0-t) for this record: `Cc1cc(C)c(-c2ccc(NC(=O)[C@H](Cc3ccc(C(=O)NCCS(=O)(=O)O)cc3)c3ccc(-c4ccc(C(C)(C)C)cc4)cc3)cc2)c(C)c1`
7600
